Recorded values, source patent US8143244B2.

- target.system: HCV NS5B (Hepatitis C virus genotype 1b)
- Construct: The protein was expressed with an 18 amino acid C-terminal truncation to enhance the solubility; made in house; host or cells: E. coli BL21(DE3)
- Sequence (Q9WMX2 2420-2992): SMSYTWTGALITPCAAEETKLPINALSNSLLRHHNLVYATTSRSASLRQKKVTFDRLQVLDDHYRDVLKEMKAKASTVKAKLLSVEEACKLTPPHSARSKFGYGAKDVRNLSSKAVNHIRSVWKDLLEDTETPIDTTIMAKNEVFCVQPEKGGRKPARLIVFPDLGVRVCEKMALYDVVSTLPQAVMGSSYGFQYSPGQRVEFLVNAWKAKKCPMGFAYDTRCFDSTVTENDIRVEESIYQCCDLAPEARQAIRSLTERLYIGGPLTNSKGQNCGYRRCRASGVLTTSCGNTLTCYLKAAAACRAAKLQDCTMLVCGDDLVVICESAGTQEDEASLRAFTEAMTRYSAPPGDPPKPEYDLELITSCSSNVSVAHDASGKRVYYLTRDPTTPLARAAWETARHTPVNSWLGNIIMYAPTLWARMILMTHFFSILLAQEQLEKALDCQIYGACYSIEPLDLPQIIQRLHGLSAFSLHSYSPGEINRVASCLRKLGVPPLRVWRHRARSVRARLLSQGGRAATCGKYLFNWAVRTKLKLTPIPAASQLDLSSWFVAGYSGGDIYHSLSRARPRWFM
- test.description: HCV NS5B RdRp enzyme assay
- Assay type: biochemical
- test.conditions: Table 1; HCV NS5B RdRp genotype 1b
The entries below come with measured IC50 values attached.
measurement.label: IC50

{"compound": "COc1ccc2c(c1)C=C(C(=O)N1CC34CNCC3(COC4)C1)Cn1c-2c(C2CCCCC2)c2ccc(C(=O)NS(=O)(=O)N(C)C)cc21 (centres unmarked)", "endpoint.result": "1.9 to 500 nM"}
{"compound": "COc1ccc2c(c1)C1CC1(C(=O)N1CC34COCC3(CN(C)C4)C1)Cn1c-2c(C2CCCCC2)c2ccc(C(=O)NS(=O)(=O)CC(C)C)cc21 (centres unmarked)", "endpoint.result": "1.9 to 500 nM"}
{"compound": "C=C(C)S(=O)(=O)NC(=O)c1ccc2c(C3CCCCC3)c3n(c2c1)C[C@@]1(C(=O)N2CC45CNCC4(COC5)C2)C[C@H]1c1cc(OC)ccc1-3 (some centres unmarked)", "endpoint.result": "< 2.3 nM"}
{"compound": "COC(=O)N1CC23COCC2(C1)CN(C(=O)[C@]12C[C@H]1c1cc(OC)ccc1-c1c(C4CCCCC4)c4ccc(C(=O)NS(=O)(=O)N(C)C)cc4n1C2)C3 (some centres unmarked)", "endpoint.result": "> 1000 nM"}
{"compound": "COc1ccc2c(c1)[C@@H]1C[C@]1(C(=O)N1CC34CCC3(CN(C(=O)N3CCCC3)C4)C1)Cn1c-2c(C2CCCCC2)c2ccc(C(=O)NS(=O)(=O)N(C)C)cc21 (some centres unmarked)", "endpoint.result": "1.9 to 500 nM"}
{"compound": "COc1ccc2c(c1)C1CC1(C(=O)N1CC34CNCC3(COC4)C1)Cn1c-2c(C2CCCCC2)c2ccc(C(=O)NS(=O)(=O)CC(C)C)cc21 (centres unmarked)", "endpoint.result": "1.9 to 500 nM"}
{"compound": "CNC(=O)N1CC23COCC2(C1)CN(C(=O)[C@]12C[C@H]1c1cc(OC)ccc1-c1c(C4CCCCC4)c4ccc(C(=O)NS(=O)(=O)C(C)C)cc4n1C2)C3 (some centres unmarked)", "endpoint.result": "1.9 to 500 nM"}
{"compound": "COc1ccc2c(c1)C1CC1(C(=O)N1CC34COCC3(CN(C)C4)C1)Cn1c-2c(C2CCCCC2)c2ccc(C(=O)NS(=O)(=O)C(C)C)cc21 (centres unmarked)", "endpoint.result": "< 2.3 nM"}
{"compound": "COc1ccc2c(c1)[C@@H]1C[C@]1(C(=O)N1CC34CCC3(CN(CC(F)(F)F)C4)C1)Cn1c-2c(C2CCCCC2)c2ccc(C(=O)NS(=O)(=O)C(C)C)cc21 (some centres unmarked)", "endpoint.result": "1.9 to 500 nM"}
{"compound": "COc1ccc2c(c1)[C@@H]1C[C@]1(C(=O)N1CC34CCC3(C1)CN(C1CC1)C4)Cn1c-2c(C2CCCCC2)c2ccc(C(=O)NS(=O)(=O)C(C)C)cc21 (some centres unmarked)", "endpoint.result": "1.9 to 500 nM"}
{"compound": "COc1ccc2c(c1)CC(C(=O)N1CC34COCC3(CN(C)C4)C1)Cn1c-2c(C2CCCCC2)c2ccc(C(=O)NS(=O)(=O)C3CC3)cc21 (centres unmarked)", "endpoint.result": "1.9 to 500 nM"}
